pIC50 for Angiopoietin-1 receptor (Homo sapiens, UniProt Q02763), merged from several publications.
pIC50: −log10 of the molar value.

For record "COc1cc(Nc2ncnc(-n3c(NCCc4ccccc4)nc4ccccc43)n2)cc(OC)c1OC" the listed pIC50 is 5.04 to 5.15

For record "O=C(Cc1cccc2ccccc12)N(CCn1nc(-c2ccccc2)nc1-c1ccncc1)C1CCCC1" the listed pIC50 is 5.00 to 6.00

For record "CCCC(=O)Nc1ccc(F)c(Cc2c[nH]c3ncc(-c4cccnc4)cc23)c1F" the listed pIC50 is ≥ 5.00

For record "CCc1cc(Br)cc(NC(=O)N2CCN(c3nccnc3OCc3ccnc(N)n3)CC2)c1" the listed pIC50 is > 7.30

----------
pIC50 for Angiopoietin-1 receptor (Homo sapiens, UniProt Q02763), merged from several publications.
pIC50: −log10 of the molar value.

For record "CC(=O)N1CCN(c2ncccc2OCc2ccnc(NC(=O)CN3CCN(C)CC3)c2)CC1" the listed pIC50 is ≤ 5.00

For record "Cc1nc2c(-c3ccc(N4CCN(C)CC4)cc3)cnn2c(N)c1-c1cccc(Cl)c1" the listed pIC50 is 5.00 to 6.00

For record "OC[C@H]1C[C@@H](Nc2nc(-c3ccccc3)nc3ccccc23)[C@H](O)[C@@H]1O" the listed pIC50 is ≤ 5.00

For record "COc1cc2nccc(COc3nsnc3N3CCN(C(=O)Nc4cc(C(F)(F)F)cc(C(F)(F)F)c4)CC3)c2cc1OC" the listed pIC50 is > 7.30

For record "O=C(CN1CCCCC1)Nc1cc(COc2nsnc2N2CCN(C(=O)Nc3cc(C(F)(F)F)cc(C(F)(F)F)c3)CC2)ccn1" the listed pIC50 is 6.00 to 7.30

For record CCc1cccc(NC(=O)N2C(C)CN(c3nccnc3OCc3ccncc3)CC2C)c1 (stereo not drawn) the listed pIC50 is 6.00 to 7.30

For record "NC(=O)c1ccccc1Nc1ncnc(-n2c(N)nc3ccccc32)n1" the listed pIC50 is < 4.89

For record "CCc1cc(Cl)cc(NC(=O)N2CCN(c3nsnc3OCc3ccnc(N)n3)CC2)c1" the listed pIC50 is > 7.30

For record "COc1cc(Nc2ncnc(Nc3ccc(N)cc3)n2)cc(OC)c1OC" the listed pIC50 is 5.02 to 5.19

For record "Nc1nccc(COc2nccnc2N2CCN(C(=O)Nc3cc(C(F)(F)F)ccc3F)CC2)n1" the listed pIC50 is > 7.30

For record "COc1ccc(Nc2ncnc(Nc3ccc4[nH]ccc4c3)n2)cc1OC" the listed pIC50 is < 4.91

For record "CC(C)(C)c1cc(Nc2ncnc(Nc3ccc(CC(=O)O)cc3)n2)[nH]n1" the listed pIC50 is < 4.91

For record "COc1cc(Nc2ncnc(-c3ccccc3)n2)cc(OC)c1OC" the listed pIC50 is < 4.88

For record "COc1cc(Nc2ncnc(Nc3ccc(C(=O)O)cc3)n2)cc(OC)c1OC" the listed pIC50 is < 4.95

For record "C=CCNc1cc(-c2ncnc(Nc3cc(OC)c(OC)c(OC)c3)n2)ccn1" the listed pIC50 is < 4.94

For record "c1ccc2c(c1)CC[C@H](Nc1nc(-c3ccncc3)nc3ccccc13)C2" the listed pIC50 is 5.00 to 6.00

For record "CCCCNc1cc(COc2nsnc2N2CCNCC2)ccn1" the listed pIC50 is ≤ 5.00

For record "c1ccc2c(NCCN3CCNCC3)nc(-c3ccncc3)nc2c1" the listed pIC50 is ≤ 5.00

For record "COc1ccc(-c2nc(-c3ccncc3)nn2CCN(C(=O)Nc2ccc(F)c(F)c2)C2CCCC2)cc1Cl" the listed pIC50 is 5.00 to 6.00

For record "COc1cccc(-c2nc(-c3ccncc3)n(CCN(C(=O)Cc3cccc4ccccc34)C3CCCC3)n2)c1" the listed pIC50 is 6.00 to 7.30

For record "COc1ccc(-c2ncnc(Nc3cc(OC)c(OC)c(OC)c3)n2)cc1OC" the listed pIC50 is 4.95 to 5.06

For record "COc1ccc(-c2nc(-c3ccncc3)nn2CCN(C(=O)Nc2ccc(C(C)=O)cc2)C2CCCC2)cc1Cl" the listed pIC50 is ≤ 5.00

For record "Nc1nc(Nc2cccnc2)nn1-c1ccc(C(F)(F)F)cn1" the listed pIC50 is < 6.00

For record "COc1ccc(NC(=O)N(CCn2nc(-c3ccncc3)nc2-c2ccc(OC)c(Cl)c2)C2CCCC2)c(C)c1" the listed pIC50 is 5.00 to 6.00

For record "CCOc1ccc(Nc2ncnc(Nc3ccc(C)c(O)c3)n2)cc1OCC" the listed pIC50 is < 4.93

For record "OCCCNc1cc(-c2ncnc(Nc3cccc(OC(F)(F)C(F)F)c3)n2)ccn1" the listed pIC50 is < 4.99

For record "O=C(Cc1cccc2ccccc12)N(CCn1nc(-c2ccc(C(F)(F)F)cc2)nc1-c1ccncc1)C1CCCC1" the listed pIC50 is ≤ 5.00

For record "COc1ccc(-c2nc(-c3ccncc3)nn2CCN(C(=O)Nc2ccccc2C(F)(F)F)C2CCCC2)cc1Cl" the listed pIC50 is ≤ 5.00

For record "CNC(=O)c1cc(Oc2ccc3c(c2)CCN3C(=O)Nc2cc(C(C)(C)C)on2)ccn1" the listed pIC50 is > 6.60

For record "COc1cccc(NC(=O)N2CCN(c3ncccc3OCc3ccnc(N)n3)CC2)c1" the listed pIC50 is 6.00 to 7.30

For record "COc1cc(Nc2ncnc(Nc3cccc4ccccc34)n2)cc(OCCN2CCOCC2)c1OC" the listed pIC50 is 5.32 to 6.10

For record "COc1ccc(CNc2ncccc2-c2ncnc(Nc3cc(OC)c(OC)c(OC)c3)n2)nc1" the listed pIC50 is < 5.02

For record "COc1cc(Nc2ncnc(Nc3ccc(N(C)C(C)=O)cc3)n2)cc(OC)c1OC" the listed pIC50 is < 4.97

----------
IC50 for Angiopoietin-1 receptor (Homo sapiens), merged from several publications.

Lab note: compound "O=C(O)Cc1cccc(Nc2ncnc(Nc3cc(-c4ccccc4)n[nH]3)n2)c1" tested on Angiopoietin-1 receptor (Homo sapiens); recorded IC50 was 1.03 to 6.2 µM

Lab note: compound "O=c1[nH]c2ccccc2n1-c1ncnc(Nc2cccc(-c3cnco3)c2)n1" tested on Angiopoietin-1 receptor (Homo sapiens); recorded IC50 was 9.42 to 12.1 µM

Lab note: compound "O=C(COc1ccc(-c2cnc3nc2NCCCNS(=O)(=O)c2cccc(c2)N3)cc1)c1ccc(F)cc1" tested on Angiopoietin-1 receptor (Homo sapiens); recorded IC50 was ≤ 1 µM

Lab note: compound "COc1ccc(Sc2ncnc(Nc3cc(OC)c(OC)c(OC)c3)n2)cc1" tested on Angiopoietin-1 receptor (Homo sapiens); recorded IC50 was 0.999 to 5.99 µM

Lab note: compound "CN1CCN(c2cccc(-c3cnn4c(N)c(Cc5ccccc5)cnc34)c2)CC1" tested on Angiopoietin-1 receptor (Homo sapiens); recorded IC50 was > 10 µM

Lab note: compound "O=C(Nc1cc(C(F)(F)F)cc(C(F)(F)F)c1)N1CCN(c2nsnc2OCc2ccnc(Br)c2)CC1" tested on Angiopoietin-1 receptor (Homo sapiens); recorded IC50 was 1 to 10 µM

Lab note: compound "COc1ccc(-c2nc(-c3ccncc3)nn2CCCN(C(=O)Cc2cccc3ccccc23)C2CCCC2)cc1Cl" tested on Angiopoietin-1 receptor (Homo sapiens); recorded IC50 was ≥ 10 µM

----------
IC50 for Angiopoietin-1 receptor (Homo sapiens), merged from several publications.

Lab note: molecule "COc1cc(Nc2ncnc(-n3c(NCc4ccccc4C)nc4ccccc43)n2)cc(OC)c1OC" tested on Angiopoietin-1 receptor (Homo sapiens); recorded IC50 was 7.03 to 9.04 µM

Lab note: molecule "CCc1ccc(Nc2ncnc(-n3c(N)nc4ccccc43)n2)cc1" tested on Angiopoietin-1 receptor (Homo sapiens); recorded IC50 was 1.21 to 7.24 µM

Lab note: molecule "O=C(Nc1cc(C(F)(F)F)cc(C(F)(F)F)c1)N1CCN(c2nccnc2CCc2ccncc2)CC1" tested on Angiopoietin-1 receptor (Homo sapiens); recorded IC50 was 0.05 to 1 µM

Lab note: molecule "COc1cc(Nc2ncnc(-n3c(NCCc4cccnc4)nc4ccccc43)n2)cc(OC)c1OC" tested on Angiopoietin-1 receptor (Homo sapiens); recorded IC50 was > 9.03 µM

Lab note: molecule "COc1cc(Nc2ncnc(-n3c(C)nc4ccccc43)n2)cc(OC)c1OC" tested on Angiopoietin-1 receptor (Homo sapiens); recorded IC50 was > 11.5 µM

Lab note: molecule "COc1cc(Nc2ncnc(Nc3ccc(OCc4ccccc4)cc3)n2)cc(OC)c1" tested on Angiopoietin-1 receptor (Homo sapiens); recorded IC50 was > 10.5 µM

Lab note: molecule "CCc1ccc(NC(=O)N(CCn2nc(-c3ccncc3)nc2-c2ccc(OC)c(Cl)c2)C2CCCC2)cc1" tested on Angiopoietin-1 receptor (Homo sapiens); recorded IC50 was ≥ 10 µM

Lab note: molecule "Nc1nccc(COc2nccnc2N2CCN(C(=O)Nc3ccccc3)CC2)n1" tested on Angiopoietin-1 receptor (Homo sapiens); recorded IC50 was 0.05 to 1 µM
